Hey, just so you know, these numbers are from patent US20260167721A1.

# Lookup of reported koff keyed by entry
Test target: T1, recombinant human CD3 epsilon/delta heterodimer (human, UniProt P07766 23-126; P04234 22-105)
T1 construct: Recombinant protein in solution (200-50 nM) in the Octet assay; also called hCD3 E/D; human CD3E/D
T1 sequence (P07766 23-126, stated change not applied, chain 1 of 2): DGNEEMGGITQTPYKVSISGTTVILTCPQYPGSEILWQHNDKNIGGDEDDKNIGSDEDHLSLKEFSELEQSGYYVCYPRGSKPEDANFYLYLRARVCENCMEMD
T1 sequence (P04234 22-105, stated change not applied, chain 2 of 2): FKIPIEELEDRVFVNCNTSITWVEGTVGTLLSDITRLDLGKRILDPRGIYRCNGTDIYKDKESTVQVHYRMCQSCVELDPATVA
Protocol description: Octet BLI, mAb on FAB2G sensor, hCD3 E/D 200-50 nM; R^2 0.99
State just the number; it will be interpreted in s⁻¹.

Guide cases for koff, answers given:
ABL-CD3-60 (antibody, V domains shown, Chimeric hybridoma mAb: human V, CH1, upper hinge; mouse middle hinge, CH2, CH3) VH: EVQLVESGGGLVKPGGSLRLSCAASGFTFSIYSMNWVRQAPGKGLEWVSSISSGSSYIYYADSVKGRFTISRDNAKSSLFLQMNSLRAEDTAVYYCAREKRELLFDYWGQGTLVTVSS VL: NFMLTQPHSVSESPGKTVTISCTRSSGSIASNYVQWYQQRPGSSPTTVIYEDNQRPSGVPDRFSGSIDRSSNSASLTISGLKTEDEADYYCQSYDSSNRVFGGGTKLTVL : 0.0962
ABL-CD3-46 (antibody, V domains shown, Chimeric hybridoma mAb: human V, CH1, upper hinge; mouse middle hinge, CH2, CH3) VH: EVQLVESGGGLVKPGGSLRLSCSASGFTFSTYTMNWVRQAPGKGLDWVSSISKSSTYIYYADSVKGRFTISRDNAKNSLYLQMNSLRAEDTAVYYCARERRTLAFDIWGQGTMVTVSS VL: NFMLTQPHSVSESPGKTVTISCTRSSGSIASNYVQWYQQRPGSSPTTVIYEDNQRPSGVPDRFSGSIDSSSNSASLTISGLKTEDEADYYCQCYDRSNRVFGGGTKLTVL : 0.00171

Can you share its koff? I mean this binder: ABL-CD3-49 (antibody, V domains shown, Chimeric hybridoma mAb: human V, CH1, upper hinge; mouse middle hinge, CH2, CH3) VH: EVQLVESGGGLVKPGGSLRLSCSASGFTFSTYTMNWVRQAPGKGLEWVSSISKSSSYIYYTDSVKGRFTISRDNAKNSLYLQMNSLRAEDTAVYYCARERRTLAFDIWGQGTMVTVSS VL: NFMLTQPHSVSESPGKTVTISCTRSSGSIASNYVQWYQQRPGSSPTTVIYEDNQRSSGVPDRFSGSIDSSSNSASLTISGLKTEDEADYYCQCYDRSNRVFGGGTKLTVL
0.00131
